The measured values listed here are drawn from patent US10752640B2.

Biological target: BRD4 protein (Homo sapiens, UniProt O60885)
Assay: FRET assay, half maximal inhibitory concentration (IC50)
Assay type: binding
Conditions: BRD4 protein 50 nM, Biotin-H4KAc4 peptide 12.5 nM; List of Classification
pIC50: −log10 of the molar value.
Overview of recorded pIC50 for various molecules

Recorded pIC50, per entry:
COc1cc2nc(O)cc(C)c2cc1NC(=O)c1cc(-c2c(C)noc2C)ccc1N1CCOCC1 [Compound-161]; > 6.70
CC1(C)CC(=O)Nc2ccc(NC(=O)c3cc(CN4CCOCC4)ccc3N3CCCC3)cc21 [Compound-103]; 6.30 to 6.70
Cc1cc(O)nc2ccc(NC(=O)c3cnccc3N3CCCC3)cc12 [Compound-124]; 6.30 to 6.70
CN(C)S(=O)(=O)c1ccc(N2CCCC2)c(C(=O)Nc2ccc3c(c2)C(C)(C)CC(=O)N3)c1 [Compound-104]; > 6.70
Cc1cc(O)nc2ccc(NC(=O)c3cc(N4CCN(C)CC4)cnc3N3CCOCC3)cc12 [Compound-185]; > 6.70
Cc1cc(O)nc2c(C)cc(NC(=O)c3cccnc3N3CCOCC3)cc12 [Compound-136]; > 6.70
Cc1cc(O)nc2ccc(NC(=O)c3cc(Cl)cnc3N3CCOCC3)cc12 [Compound-140]; > 6.70

QUERY: Tell me the measured pIC50 of Cc1cc2nc(O)cc(C)c2cc1NC(=O)c1cc(-c2cnoc2)ccc1N1CCOCC1 [Compound-163] , please.
RESULT: > 6.70

---

Target: BRD4 protein (Homo sapiens, UniProt O60885)
Assay: FRET assay, half maximal inhibitory concentration (IC50)
Type: binding
Conditions: BRD4 protein 50 nM, Biotin-H4KAc4 peptide 12.5 nM; List of Classification
Protocol: The compounds were biologically evaluated by determining the half maximal inhibitory concentration (IC50) by FRET assay. The IC50 is a measure of the effectiveness of a substance in inhibiting a specific biological or biochemical function. […] The reaction was run in a final volume of 25 μl. […] The plates were incubated for one hour prior to reading on an Envision reader (Perkin Elmer) […]
value-kind: IC50

Example results:
Cc1cc2nc(O)cc(C)c2cc1NC(=O)c1cc(-c2c(C)noc2C)ccc1N1CCOCC1 [Compound-155]; < 200 nM
COc1cc2nc(O)cc(C)c2cc1NC(=O)c1cc(-c2nnc(C)o2)ccc1N1CCOCC1 [Compound-201]; < 200 nM
CC(=O)c1cc(C(=O)Nc2ccc3nc(O)cc(C)c3c2)c(N2CCCC2CN(C)C)cn1 (centres unmarked) [Compound-212]; < 200 nM
Cc1cc(O)nc2ccc(NC(=O)c3cc(CN4CCOCC4)cnc3N3CCC(O)C3)cc12 (centres unmarked) [Compound-89]; < 200 nM
Cc1cc(O)nc2ccc(NC(=O)c3cc(C(C)O)ccc3N3CCOCC3)cc12 (centres unmarked) [Compound-168]; < 200 nM

QUERY: I have this molecule here, Cc1cc(O)nc2ccc(NS(=O)(=O)c3cc(S(N)(=O)=O)ccc3N3CCOCC3)cc12 [Compound-80] , and I need its recorded IC50.
RESULT: > 10000 nM

QUERY: What measured IC50 goes with Cc1cc(O)nc2ccc(NC(=O)c3cccnc3N3CCC(F)(F)C3)cc12 [Compound-133] ?
RESULT: < 200 nM

QUERY: So what does the record say about IC50 for Cc1cc(O)nc2ccc(NC(=O)c3cc4c(ccn4CC4NCCO4)cc3N3CCCC3)cc12 (centres unmarked) [Compound-84] ?
RESULT: < 200 nM

QUERY: Could you share which IC50 value was measured for Cc1cc2nc(O)cc(C)c2cc1NC(=O)c1cc(-c2c(C)noc2C)cnc1N1CCOCC1 [Compound-188] ?
RESULT: < 200 nM

QUERY: // lookup IC50 for Cc1cc(O)nc2ccc(NC(=O)c3cc(C(=O)N4CCOCC4)ccc3N3CCOCC3)cc12 [Compound-11]
RESULT: 200 to 500 nM

QUERY: Query (molecule): COc1cc2nc(O)cc(C)c2cc1NC(=O)c1cc(-c2cnn(C)c2)ccc1N1CCOCC1 [Compound-159] ; field requested: IC50
RESULT: < 200 nM

QUERY: State the recorded IC50 for this entry: Cc1cc(O)nc2ccc(NC(=O)c3ccncc3N3CCCC3)cc12 [Compound-95]
RESULT: < 200 nM

QUERY: Consider the molecule Cc1cc(O)nc2ccc(NC(=O)c3cc(S(=O)(=O)N4CCOCC4)ccc3N3CCC(O)C3)cc12 (centres unmarked) [Compound-110] and give its measured IC50.
RESULT: < 200 nM

QUERY: Would you mind telling me what IC50 value was observed for Cc1cc(O)nc2ccc(NC(=O)c3cc(CN4CCOCC4)ccc3N3CCC(O)C3)cc12 (centres unmarked) [Compound-31] ?
RESULT: < 200 nM

QUERY: Using the record for Cc1cc(O)nc2ccc(NC(=O)c3cc(N4CCOCC4)cnc3N3CCOCC3)cc12 [Compound-186] , report its IC50.
RESULT: < 200 nM

QUERY: What value of IC50 has been reported for the following molecule? Cc1cc(O)nc2ccc(NC(=O)c3cc(CN4CCOCC4)cnc3N3CCOCC3)cc12 [Compound-90]
RESULT: < 200 nM

QUERY: What does the data say about its IC50? Entry: Cc1cc(O)nc2ccc(NC(=O)c3nc(CN)ccc3N3CCCC3)cc12 [Compound-36]
RESULT: 1000 to 10000 nM

---

Reported pIC50 is given for each of the following molecules.
Target: BRD4 protein (Homo sapiens, UniProt O60885)
Assay: FRET assay, half maximal inhibitory concentration (IC50)
Format: binding
Settings: BRD4 protein 50 nM, Biotin-H4KAc4 peptide 12.5 nM; A Further List of Classification
pIC50: −log10 of the molar value.

The following molecules have reported results that may help.
Cc1cc(O)nc2ccc(NC(=O)c3cc(S(=O)(=O)N(C)C)ccc3N3CCCC3c3nnn[nH]3)cc12 (stereo not shown) [S60]; > 6.70
Cc1cc(O)nc2ccc(NC(=O)c3cc(CN4CCOCC4)cnc3N3CCC(c4ccncc4)C3)cc12 (stereo not shown) [S111]; 6.00 to 6.30

QUERY: Param readout= pIC50; system= BRD4 protein (Homo sapiens, UniProt O60885); entry= Cc1cc(O)nc2ccc(NC(=O)c3cc(S(=O)(=O)N(C)C)ccc3N3CCCC3C(=O)N(C)C)cc12 (stereo not shown) [S62] ; returns value.
RESULT: > 6.70

QUERY: Recorded pIC50 for Cc1cc(O)nc2ccc(NC(=O)c3ccccc3N3CCOCC3)cc12 [S2] with BRD4 protein (Homo sapiens, UniProt O60885), please?
RESULT: 6.30 to 6.70

QUERY: What measured pIC50 is associated with CCN(CC)S(=O)(=O)c1ccc(N2CCCCC2)c(C(=O)Nc2ccc3nc(O)cc(C)c3c2)c1 [S72] on BRD4 protein (Homo sapiens, UniProt O60885)?
RESULT: 6.00 to 6.30

QUERY: // lookup pIC50 | system=BRD4 protein (Homo sapiens, UniProt O60885) | key= Cc1cc(O)nc2ccc(NC(=O)c3cc(CN4CCCN(C)CC4)ccc3N3CCCC3)cc12 [S87]
RESULT: > 6.70

QUERY: Provide the documented pIC50 with BRD4 protein (Homo sapiens, UniProt O60885) as the system for CN1C(=O)CCc2cc(NC(=O)c3ccccc3N3CCN(c4cnccn4)CC3)ccc21 [S8]
RESULT: < 5.00

---

Molecular target: UniProt:O60885
Test: FRET assay, half maximal inhibitory concentration (IC50)
Assay type: binding
Conditions: BRD4 protein 50 nM, Biotin-H4KAc4 peptide 12.5 nM; A Further List of Classification
pIC50: −log10 of the molar value.
# reported pIC50; entries follow

Field: example entries. Status: answers known.
CN1CCN(c2ccccc2C(=O)Nc2ccc3c(c2)CCC(=O)N3C)CC1; < 5.00
COCC1CCCN1c1ccc(S(=O)(=O)N(C)C)cc1C(=O)Nc1ccc2nc(O)cc(C)c2c1 (stereo not shown); > 6.70
Cc1cc(O)nc2ccc(NC(=O)c3cc(CN4CCC(N(C)C)C4)ccc3N3CCCC3)cc12 (stereo not shown); > 6.70

Lab note: next compound to report on.
QUERY: Fill in: pIC50 of Cc1cc(O)nc2ccc(NC(=O)c3cc(S(=O)(=O)N(C)C)ccc3N3CCC(N4CCCC4)C3)cc12 (stereo not shown) is ___
RESULT: 6.00 to 6.30

---

Biological target: BRD4 protein (Homo sapiens)
Test: FRET assay, half maximal inhibitory concentration (IC50)
Type: binding
Details: BRD4 protein 50 nM, Biotin-H4KAc4 peptide 12.5 nM; A Further List of Classification
pIC50: −log10 of the molar value.
value-kind: pIC50

Examples from the recorded data:
CN1Cc2cc(NC(=O)c3cc(S(=O)(=O)N(C)C)ccc3N3CCOCC3)ccc2NC1=O; > 6.70
Cc1cc(O)nc2ccc(NC(=O)c3cc(S(=O)(=O)N(C)C)ccc3N3CCC(C(N)=O)C3)cc12 (stereo not shown); > 6.70
Cc1cc(O)nc2ccc(NC(=O)c3cccc(CN4CCNCC4)c3)cc12; 6.00 to 6.30
Cc1cc(O)nc2ccc(NC(=O)c3cc(S(=O)(=O)N(C)C)ccc3N3CCC(N(C)C)C3)cc12 (stereo not shown); 6.00 to 6.30
Cc1cc(O)nc2ccc(NC(=O)c3cccc(N4CCCC4)c3)cc12 [S29, reference compound]; < 5.00
Cc1cc(O)nc2ccc(NC(=O)c3cc(CN4CC(O)C4)ccc3N3CCCC3)cc12; > 6.70
Cc1cc(O)nc2ccc(NC(=O)c3cc(S(=O)(=O)N(C)C)ccc3N3CCC(c4ccccc4)C3)cc12 (stereo not shown); > 6.70
COCC1CN(Cc2ccc(N3CCCC3)c(C(=O)Nc3ccc4nc(O)cc(C)c4c3)c2)C1; > 6.70

QUERY: For Cc1cc(O)nc2ccc(NC(=O)c3cc(CN4CCC(O)C4)ccc3N3CCCC3)cc12 (stereo not shown) , what is its reported pIC50?
RESULT: > 6.70

QUERY: Entry Cc1cc(O)nc2ccc(NC(=O)c3cc(S(=O)(=O)N(C)C)ccc3N3CCCCC3c3ccccc3)cc12 (stereo not shown) : reported pIC50 = ?
RESULT: > 6.70

QUERY: Requested field: pIC50. Item: Cc1cc(O)nc2ccc(NC(=O)c3cc([N+](=O)[O-])ccc3N3CCOCC3)cc12
RESULT: > 6.70
